# EXPERIMENTAL_SYSTEM: Cbl-b (Homo sapiens, UniProt Q13191)
# Construct: Cbl-b-HiBit KI Jurkat Cells were purchased from Promega; host or cells: Cbl-b-HiBiT knock-in Jurkat cells
# Sequence (Q13191 whole entry): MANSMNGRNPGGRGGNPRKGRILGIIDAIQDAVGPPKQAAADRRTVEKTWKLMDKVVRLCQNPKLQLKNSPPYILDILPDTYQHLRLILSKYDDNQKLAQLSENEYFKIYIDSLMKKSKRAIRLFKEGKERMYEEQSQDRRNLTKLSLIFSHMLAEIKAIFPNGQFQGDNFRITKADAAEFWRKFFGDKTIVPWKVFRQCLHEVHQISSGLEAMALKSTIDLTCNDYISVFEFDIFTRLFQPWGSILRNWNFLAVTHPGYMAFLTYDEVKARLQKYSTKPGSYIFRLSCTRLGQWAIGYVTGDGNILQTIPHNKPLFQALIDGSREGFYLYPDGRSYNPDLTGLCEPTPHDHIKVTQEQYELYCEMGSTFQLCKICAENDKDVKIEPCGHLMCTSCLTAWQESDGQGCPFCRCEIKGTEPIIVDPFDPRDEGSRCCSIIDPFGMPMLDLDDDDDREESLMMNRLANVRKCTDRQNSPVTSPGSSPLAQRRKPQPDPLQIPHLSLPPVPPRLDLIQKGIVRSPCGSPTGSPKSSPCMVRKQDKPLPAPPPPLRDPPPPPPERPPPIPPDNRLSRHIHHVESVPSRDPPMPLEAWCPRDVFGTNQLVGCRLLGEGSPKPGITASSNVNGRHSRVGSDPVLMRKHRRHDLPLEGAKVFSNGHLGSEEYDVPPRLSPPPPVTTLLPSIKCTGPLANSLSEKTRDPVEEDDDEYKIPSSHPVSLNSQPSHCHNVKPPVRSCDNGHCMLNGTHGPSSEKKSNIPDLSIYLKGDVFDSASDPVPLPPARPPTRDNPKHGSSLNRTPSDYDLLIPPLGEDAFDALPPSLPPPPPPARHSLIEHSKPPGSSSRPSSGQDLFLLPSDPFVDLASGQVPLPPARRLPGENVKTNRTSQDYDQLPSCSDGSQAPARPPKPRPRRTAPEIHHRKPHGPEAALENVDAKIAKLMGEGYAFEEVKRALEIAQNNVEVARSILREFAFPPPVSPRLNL
# ASSAY_DETAILS: Cbl-b Degradation Method B (Nano-Glo HiBiT lytic detection)
# Assay type: cell-based
# CONDITION_PARAMETERS: Cbl-b-HiBit KI Jurkat Cells, incubated at least 6-24 hours; half maximal degradation; read-out: Cbl-b Degredation Method B IC50
Recorded DC50 for the following compounds
READOUT_KIND: DC50

[[record]]
compound = "Cc1cc(N2CCC(CN3CCC4(CC3)CN(c3cc5c(c(C(F)(F)F)c3)CN(c3cccc(C6(Cc7nncn7C)CC6)c3)C5=O)C4)CC2)c(F)c2c1C(=O)N(C1CCC(=O)NC1=O)C2 (stereo not drawn) [Example 191]"
experimental_system = "Cbl-b (Homo sapiens, UniProt Q13191)"
value_observed = "< 5 nM"

[[record]]
compound = "CC(C)n1c(=O)n(C2CCC(=O)NC2=O)c2cccc(N3CCC(O[C@H]4CC[C@H](CN5CC6(CN(Cc7cc8c(c(C(F)(F)F)c7)CN(c7cccc([C@]9(Cc%10nncn%10C)C[C@@H](C#N)C9)c7)C8=O)C6)C5)CC4)CC3)c21 (stereo partly drawn) [Example 327]"
experimental_system = "Cbl-b (Homo sapiens, UniProt Q13191)"
value_observed = "< 5 nM"

[[record]]
compound = "Cn1cnnc1C1(c2cccc(N3Cc4c(cc(CN5CCC[C@H](CN6CCN(C[C@H]7CC[C@@H](OC8CCN(c9ccc%10c(c9F)CN(C9CCC(=O)NC9=O)C%10=O)CC8)CC7)CC6)C5)cc4C(F)(F)F)C3=O)c2)COC1 (stereo partly drawn) [Example 161]"
experimental_system = "Cbl-b (Homo sapiens, UniProt Q13191)"
value_observed = "> 500 nM"

[[record]]
compound = "Cn1cnnc1CC1(c2cccc(N3Cc4c(cc(CN5CCC[C@H](CN6CCC(CN7CCC(CN8CCN(c9ccc%10c(c9F)CN(C9CCC(=O)NC9=O)C%10=O)CC8)CC7)CC6)C5)cc4C(F)(F)F)C3=O)c2)COC1 (stereo partly drawn) [Example 74]"
experimental_system = "Cbl-b (Homo sapiens, UniProt Q13191)"
value_observed = "< 5 nM"

[[record]]
compound = "Cc1cc(N2CCC(CN3CCC4(CC3)CN(c3cc(C(F)(F)F)c5cn(-c6cccc([C@]7(Cc8nncn8C)C[C@@H](C#N)C7)c6)nc5c3)C4)CC2)c(F)c2c1C(=O)N(C1CCC(=O)NC1=O)C2 (stereo partly drawn) [Example 154]"
experimental_system = "Cbl-b (Homo sapiens, UniProt Q13191)"
value_observed = "> 500 nM"

[[record]]
compound = "Cn1cnnc1CC1(c2cccc(N3Cc4c(cc(CN5CCC[C@H](CN6CCC(C7CCN(c8ccc9c(c8)C(=O)N(C8CCC(=O)NC8=O)C9=O)CC7)CC6)C5)cc4C(F)(F)F)C3=O)c2)COC1 (stereo partly drawn) [Example 96]"
experimental_system = "Cbl-b (Homo sapiens, UniProt Q13191)"
value_observed = "> 500 nM"

[[record]]
compound = "Cn1cnnc1CC1(c2cccc(N3Cc4c(cc(N5CC6(CCN(CC7CCN(c8ccc9c(c8Cl)CN(C8CCC(=O)NC8=O)C9=O)CC7)CC6)C5)cc4C(F)(F)F)C3=O)c2)COC1 (stereo not drawn) [Example 4]"
experimental_system = "Cbl-b (Homo sapiens, UniProt Q13191)"
value_observed = "< 5 nM"

[[record]]
compound = "CC(C)n1c(=O)n(C2CCC(=O)NC2=O)c2ccc(N3CCC(O[C@H]4CC[C@H](CN5CCN(Cc6cc7c(c(C(F)(F)F)c6)CN(c6cccc(C8(Cc9nncn9C)CC(C#N)C8)c6)C7=O)C(C)(C)C5)CC4)CC3)c(F)c21 (stereo partly drawn) [Example 318]"
experimental_system = "Cbl-b (Homo sapiens, UniProt Q13191)"
value_observed = "< 5 nM"

[[record]]
compound = "Cc1cc(C2CCN(CC3CCC4(CC3)CN(c3cc5c(c(C(F)(F)F)c3)CN(c3cccc([C@]6(Cc7nncn7C)C[C@@H](C#N)C6)c3)C5=O)C4)CC2)c(F)c2c1C(=O)N(C1CCC(=O)NC1=O)C2 (stereo partly drawn) [Example 272]"
experimental_system = "Cbl-b (Homo sapiens, UniProt Q13191)"
value_observed = "5 to 50 nM"


* * *

# EXPERIMENTAL_SYSTEM: Cbl-b (Homo sapiens, UniProt Q13191)
# Construct: Cbl-b-HiBit KI Jurkat Cells were purchased from Promega; host or cells: Cbl-b-HiBiT knock-in Jurkat cells
# ASSAY_DETAILS: Cbl-b Degradation Method B (Nano-Glo HiBiT lytic detection)
# Type: cell-based
# CONDITION_PARAMETERS: Cbl-b-HiBit KI Jurkat Cells, incubated at least 6-24 hours; half maximal degradation; read-out: Cbl-b Degredation Method B IC50
Listed here: items and their measured DC50.
READOUT_KIND: DC50

[[record]]
compound = "Cn1cnnc1CC1(c2cccc(N3Cc4c(cc(CN[C@H]5CC[C@H](N6CCN(c7ccc8c(c7)C(=O)N(C7CCC(=O)NC7=O)C8=O)CC6)CC5)cc4C(F)(F)F)C3=O)c2)COC1 (stereo partly drawn)"
readout_kind = "DC50"
value_observed = "5 to 50 nM"

[[record]]
compound = "Cn1cnnc1C(c1cccc(N2Cc3c(cc(CN4CCC[C@H](CN5CCN(C[C@H]6CC[C@@H](OC7CCN(c8ccc9c(c8F)CN(C8CCC(=O)NC8=O)C9=O)CC7)CC6)CC5)C4)cc3C(F)(F)F)C2=O)c1)C1CCC1 (stereo partly drawn)"
readout_kind = "DC50"
value_observed = "< 5 nM"

[[record]]
compound = "Cn1cnnc1CC1(c2cccc(N3Cc4c(cc(CN5CCC(COCCOc6ccc7c(c6)C(=O)N(C6CCC(=O)NC6=O)C7=O)CC5)cc4C(F)(F)F)C3=O)c2)COC1 (stereo not drawn)"
readout_kind = "DC50"
value_observed = "> 500 nM"


* * *

Dmax values, listed per item
# EXPERIMENTAL_SYSTEM: Cbl-b (Homo sapiens)
# Construct: Cbl-b-HiBit KI Jurkat Cells were purchased from Promega; host or cells: Cbl-b-HiBiT knock-in Jurkat cells
# ASSAY_DETAILS: Cbl-b Degradation Method B (Nano-Glo HiBiT lytic detection)
# Format: cell-based
# CONDITION_PARAMETERS: Cbl-b-HiBit KI Jurkat Cells, incubated at least 6-24 hours; maximum degradation observed; read-out: Cbl-b Degredation Method B Dmax (%)
READOUT_KIND: Dmax

[[record]]
compound = "C[C@H]1CN(Cc2cc3c(c(C(F)(F)F)c2)CN(c2cccc(C4(Cc5nncn5C)COC4)c2)C3=O)CCN1CC1CCC(OC2CCN(c3ccc4c(c3F)CN(C3CCC(=O)NC3=O)C4=O)CC2)CC1 (stereo partly shown) [Example 237]"
value_observed = "> 70%"

[[record]]
compound = "Cn1cnnc1CC1(c2cccc(N3Cc4c(cc(CN5CCC[C@H](CN6CCN(C[C@H]7CC[C@H](OC8CCN(c9ccc%10c(c9F)CN(C9CCC(=O)NC9=O)C%10=O)CC8)CC7)CC6(C)C)C5)cc4C(F)(F)F)C3=O)c2)COC1 (stereo partly shown) [Example 148]"
value_observed = "> 70%"

[[record]]
compound = "C[C@H]1C[C@@H](CN2CCN(c3ccc4c(c3)C(=O)N(C3CCC(=O)NC3=O)C4=O)CC2)CN(Cc2cc3c(c(C(F)(F)F)c2)CN(c2cccc(C4(Cc5nncn5C)COC4)c2)C3=O)C1 (stereo partly shown) [Example 85]"
value_observed = "> 70%"

[[record]]
compound = "CC1c2nc(N3CCC(O[C@H]4CC[C@H](CN5C[C@H]6C[C@@H]5CN6Cc5cc6c(c(C(F)(F)F)c5)CN(c5cccc(C7(Cc8nncn8C)CCC7)c5)C6=O)CC4)CC3)ccc2C(=O)N1C1CCC(=O)NC1=O (stereo partly shown) [Example 225]"
value_observed = "35 to 70%"


* * *

# EXPERIMENTAL_SYSTEM: Cbl-b (Homo sapiens, UniProt Q13191)
# Construct: Cbl-b-HiBit KI Jurkat Cells were purchased from Promega; host or cells: Cbl-b-HiBiT knock-in Jurkat cells
# ASSAY_DETAILS: Cbl-b Degradation Method B (Nano-Glo HiBiT lytic detection)
# Type: cell-based
# CONDITION_PARAMETERS: Cbl-b-HiBit KI Jurkat Cells, incubated at least 6-24 hours; half maximal degradation; read-out: Cbl-b Degredation Method B IC50
READOUT_KIND: DC50

[[record]]
compound = "Cn1cnnc1CC1(c2cccc(N3Cc4c(cc(CN5CCN(C[C@H]6CC[C@H](OC7CCN(c8ccc9c(c8Cl)CN(C8CCC(=O)NC8=O)C9=O)CC7)CC6)CC5)cc4C(F)(F)F)C3=O)c2)COC1 (stereo partly drawn)"
readout_kind = "DC50"
value_observed = "< 5 nM"

[[record]]
compound = "C[C@@H]1CN(CC2CCC(OC3CCN(c4ccc5c(n4)[C@@H](C)N(C4CCC(=O)NC4=O)C5=O)CC3)CC2)CCN1Cc1cc2c(c(C(F)(F)F)c1)CN(c1cccc([C@]3(Cc4nncn4C)C[C@H](C#N)C3)c1)C2=O (single isomer, unassigned) [Example 239]"
readout_kind = "DC50"
value_observed = "< 5 nM"

[[record]]
compound = "Cn1cnnc1CC1(c2cccc(-n3cc4c(C(F)(F)F)cc(CN5CCC[C@H](CN6CCN(C[C@H]7CC[C@@H](OC8CCN(c9ccc%10c(c9F)CN(C9CCC(=O)NC9=O)C%10=O)CC8)CC7)CC6)C5)cc4n3)c2)COC1 (stereo partly drawn)"
readout_kind = "DC50"
value_observed = "< 5 nM"

[[record]]
compound = "C[C@@H]1C[C@H](CN2CCC(CN3CCC(CN4CCN(c5ccc6c(c5)C(=O)N(C5CCC(=O)NC5=O)C6=O)CC4)CC3)CC2)CN(Cc2cc3c(c(C(F)(F)F)c2)CN(c2cccc(C4(Cc5nncn5C)COC4)c2)C3=O)C1 (stereo partly drawn)"
readout_kind = "DC50"
value_observed = "< 5 nM"

[[record]]
compound = "Cn1cnnc1CC1(c2cccc(N3Cc4c(cc(CN5CC(C6CN(c7ccc(Oc8ccc9c(c8)C(=O)N(C8CCC(=O)NC8=O)C9=O)cc7)C6)C5)cc4C(F)(F)F)C3=O)c2)COC1 (stereo not drawn)"
readout_kind = "DC50"
value_observed = "> 500 nM"

[[record]]
compound = "C[C@@H]1CN(CC2CCC(OC3CCN(c4ccc5c(n4)[C@@H](C)N(C4CCC(=O)NC4=O)C5=O)CC3)CC2)CCN1Cc1cc2c(c(C(F)(F)F)c1)CN(c1cccc([C@]3(Cc4nncn4C)C[C@H](C#N)C3)c1)C2=O (single isomer, unassigned) [Example 240]"
readout_kind = "DC50"
value_observed = "> 500 nM"

[[record]]
compound = "CC1c2nc(N3CCC(O[C@H]4CC[C@H](CN5C[C@H]6C[C@@H]5CN6Cc5cc6c(c(C(F)(F)F)c5)CN(c5cccc(C7(Cc8nncn8C)CC7)c5)C6=O)CC4)CC3)ccc2C(=O)N1C1CCC(=O)NC1=O (stereo partly drawn)"
readout_kind = "DC50"
value_observed = "< 5 nM"

[[record]]
compound = "Cn1cnnc1CC1(c2cccc(N3Cc4c(cc(CN5CCN(C[C@H]6CC[C@H](OC7CCN(c8ccc9c(c8F)CN(C8CCC(=O)NC8=O)C9=O)CC7)CC6)CC5)cc4C(F)(F)F)C3=O)c2)COC1 (stereo partly drawn)"
readout_kind = "DC50"
value_observed = "< 5 nM"

[[record]]
compound = "CC1CN(C[C@H]2CC[C@@H](OC3CCN(c4ccc5c(c4F)CN(C4CCC(=O)NC4=O)C5=O)CC3)CC2)CCN1C[C@H]1CCCN(Cc2cc3c(c(C(F)(F)F)c2)CN(c2cccc(C4(Cc5nncn5C)COC4)c2)C3=O)C1 (stereo partly drawn)"
readout_kind = "DC50"
value_observed = "< 5 nM"

